# procedureDetails: yeast display, Sf9 membrane polyspecificity reagent, FACS + sequencing; frameworks hold sequencing errors
outcomeMeasure: polyreactivity (PSR sort gate)

Study these solved cases before continuing.
QVQLVESGGGLVQAGGSLRLSCAASGNIFAIYARGWYRQAPGKEREFVAAIDWSVASTYYADSVKGRFTISRDNEKNTVYLQMNSLTPEDTAVYSSAAELYGLKYGYYLSYDYWGQGTQVTVSS    high polyreactivity
QVQLVESGGGLVQAGGSLRLSCAASGSILGANAMGWYRQAPGKERELVAAISYRGGSTYYADSVKGRFTISRDNAKNTVYLQMNSLKPEDTAVYYCAAVVPTGYDYWGQGTQVTVSS    low polyreactivity
QVQLVESGGGLVQAGGSLRLSCAASGRTFVRNAMGWYRQAPGKERELVAAISSSGGSTYYADSVKGRFTISRDNAKNTVYLQMNSLKPEDTAVYYCAARSAFYYTYRSHYGWGMDYWGQGTQVTVSS    high polyreactivity
QVQLVESGGGLVQAGGSLRLSCAASGGTFSWYAMGWYRQAPGKERELVAAITARGGSTYYADSVKGRFTISRDNAKNTVYLQMNSLKPEDTAVYYCNKRTRSLVRYNSGGYSVGYWGQCTQVTVSS    high polyreactivity
QVQLVESGGGLVQAGGSHRLSCAASGSTFVRNAMGWYRPAPAKERGLVAGISTSGGRTYYADSVKGRFTISRDNAKNTVYLQMNSLKPEDTAVYDCAVLAWRSIAYDKYDYWGQGTQVTVSS    high polyreactivity

Exam item: Give polyreactivity (PSR sort gate) for the following sequence: QVQLQVSGGGLVQAGGNLRLSCASSCTISESFGMGWNRQAPGKEREFVAGITMGGITNYADSVRGRFTISRDNAKNMYLQMNSLKPEDTAVYYCEVDDYRYINYEFWGQGTQVSVSS
Marked response: high polyreactivity

Exam item: Using known records, supply polyreactivity (PSR sort gate) for QVQLVESGGGLVQAGGSLRLSCAASGFIFVRYAMGWYRQAPGKERELVASISGRGSSTYYADSVKGRFTISRDNAKNTVYLQMNSLKPEDTAVYYCAADYYRRIGGYPYDYDYWGQGTQVTVSS
Marked response: high polyreactivity

Exam item: Please report the measured polyreactivity (PSR sort gate) for QVQLVESGGGLVQAGGSLRLSCAASGSIFPLYAMGWSRQAPGKERELVAAITWRGGSTYYADSVKGRFTITRDNAKNTVYLQMNSLKPEDTAVYYCNRDLVPRFDYWGQGTQVTVSS
Marked response: low polyreactivity

Exam item: Using known records, supply polyreactivity (PSR sort gate) for QDQLVESGGGLVQAGGSLRLSCAASGSIIFFYVMGWYRQAPGKERELVAAITYSGGSTFYADSVKGRFTISRDNAKNSVYLQMNSLKPEDTAVNYCAAEYGQWTPLDPYNHWGQGTQVNVSS
Marked response: low polyreactivity

Exam item: Output measured polyreactivity (PSR sort gate) for this item: QVQLVESGGGLVQAGGSLRLSCAATGRIFAYNTMGWYRQAPGKERELVAVITSGGSTNYADSVKGRFTISRDNAKNTVYLQMNSLNPEDTAVYYCAKRPYGRSGGSRYDYWGQGTQVTVSS
Marked response: high polyreactivity

Exam item: Annotate the sequence QVQLVESVGGLVQAGGSLRLSCAASGFNFRVYPMGWYRPAPRKERELVAAISVSGGSTTYADSVNGRFTISRDNAKNTVYLQMNSLKPEDTAVYYCAADYDFFSLYLYDYWGQGTQVTVSS with its measured polyreactivity (PSR sort gate).
Marked response: low polyreactivity

The reported measurements were obtained from the nanobody polyreactivity screen of Harvey et al. (2022).
